target: LHRH receptors (Rattus norvegicus, UniProt P30969); construct: Pituitary membranes containing LHRH receptors are prepared in batches from quick-frozen rat pituitaries; tissue Hilltop Labs; host or cells: rat pituitary membranes; assay: Receptor Binding (radioligand receptor binding assay); details: table 3; rat pituitary membranes, radioiodinated [D-Leu^6 -des Gly^10 ]-LHRH ethyl amide 50 pM, 2 hours at 4° C.; read-out: Receptor Binding pkI (converted)
Sequence (P30969 whole entry): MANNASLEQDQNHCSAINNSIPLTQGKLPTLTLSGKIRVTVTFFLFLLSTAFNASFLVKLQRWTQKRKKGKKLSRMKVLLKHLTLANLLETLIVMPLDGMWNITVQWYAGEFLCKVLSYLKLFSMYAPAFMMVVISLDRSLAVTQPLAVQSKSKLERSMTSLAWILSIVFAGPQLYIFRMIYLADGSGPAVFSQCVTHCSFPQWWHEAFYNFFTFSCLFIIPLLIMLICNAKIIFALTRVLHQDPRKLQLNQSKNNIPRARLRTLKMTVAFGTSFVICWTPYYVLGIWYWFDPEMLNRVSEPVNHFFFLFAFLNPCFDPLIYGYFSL
Numbered stars: 1 amine (or outer) side, 2 acyl side, 3 side chain; on linkers, the order of the positions; unused ones are H or OH. Square brackets hold non-standard residues; d marks the D form. Peptide text beside a SMILES is read from it. * marks the point of attachment. Propanoyl(3-indol-3-yl) = O=C(CCc1c[nH]c2ccccc12)*; Propanoyl(3-(4-F-phenyl)) = O=C(CCc1ccc(F)cc1)*; Propanoyl(3-(4-Cl-Ph)) = O=C(CCc1ccc(Cl)cc1)*; X7 = CC1(C)CN(CC(=O)*)C(=O)C(c2ccccc2)=N1; Phenylacetyl(4-Cl) = O=C(Cc1ccc(Cl)cc1)*; 2Nal = N[C@@H](Cc1ccc2ccccc2c1)C(=O)O; Desaminohistidyl = O=C(CCc1c[nH]cn1)*; Hydrocinnamoyl = O=C(CCc1ccccc1)*; X11 = CN(C)c1ccc(C=CC(=O)*)cc1; d2Thi = N[C@H](Cc1cccs1)C(=O)O; NMeS = CN[C@@H](CO)C(=O)O; Morpholide = C1CN(*)CCO1; X2 = O=C(C=Cc1ccccc1)*; CO = O=C([*:1])[*:2]
Labelling: Ki reported below 2 nM becomes yes; at or above becomes no.

Query block: Does this molecule meet the criterion Ki < 2 nM? CCNC(=O)[C@@H]1CCCN1C(=O)[C@H](CCCNC(=N)N)NC(=O)[C@H](CC(C)C)NC(=O)[C@@H](Cc1c[nH]c2ccccc12)NC(=O)[C@H](Cc1ccc(O)cc1)NC(=O)[C@H](CO)NC(=O)[C@H](Cc1c[nH]c2ccccc12)NC(=O)Cc1ccc(Cl)cc1 [Compound 104] ({Phenylacetyl(4-Cl)}-WSY[dW]LRP-NHEt)
Result block: yes

Query block: Likewise for CCNC(=O)[C@@H]1CCCN1C(=O)[C@H](CCCN=C(N)N)NC(=O)[C@H](CC(C)C)NC(=O)[C@@H](Cc1ccc(O)cc1)NC(=O)[C@H](Cc1ccc(O)cc1)NC(=O)[C@H](CO)NC(=O)[C@H](Cc1c[nH]c2ccccc12)NC(=O)CCc1ccc(F)cc1 [Compound 92] ({Propanoyl(3-(4-F-phenyl))}-WSY[dY]LRP-NHEt) ?
Result block: yes

Query block: Another molecule to look at: CCNC(=O)[C@@H]1CCCN1C(=O)[C@H](CCCNC(=N)N)NC(=O)[C@H](CC(C)C)NC(=O)[C@@H](CC(C)C)NC(=O)[C@H](Cc1ccc(O)cc1)NC(=O)[C@H](CO)NC(=O)[C@H](Cc1c[nH]c2ccccc12)NC(=O)C=Cc1ccc(N(C)C)cc1 [Compound 64] (X11-WSY[dL]LRP-NHEt)
Result block: no

Query block: What do we get for CCNC(=O)[C@@H]1CCCN1C(=O)[C@H](CCCNC(=N)N)NC(=O)[C@H](CC(C)C)NC(=O)[C@@H](Cc1c[nH]c2ccccc12)NC(=O)[C@H](CCCCN)NC(=O)[C@H](CO)NC(=O)[C@H](Cc1c[nH]c2ccccc12)NC(=O)[C@H](Cc1c[nH]cn1)NC(=O)CN1CC(C)(C)N=C(c2ccccc2)C1=O [Compound 71] (X7-HWSK[dW]LRP-NHEt) ?
Result block: no

Query block: Again, but for CCNC(=O)[C@@H]1CCCN1C(=O)[C@H](CCCNC(=N)N)NC(=O)[C@H](CC(C)C)NC(=O)[C@@H](Cc1c[nH]c2ccccc12)NC(=O)[C@H](Cc1ccc(O)cc1)NC(=O)[C@H](CO)NC(=O)[C@H](Cc1c[nH]c2ccccc12)NC(=O)[C@H](Cc1c[nH]cn1)NC(=O)CCc1cnc[nH]1 [Compound 69] (Desaminohistidyl-HWSY[dW]LRP-NHEt)
Result block: yes

Query block: Same question for CCNC(=O)[C@@H]1CCCN1C(=O)[C@H](CCCNC(=N)N)NC(=O)[C@H](CC(C)C)NC(=O)[C@@H](CC(C)C)NC(=O)[C@H](Cc1ccc(O)cc1)NC(=O)[C@H](CO)NC(=O)[C@H](Cc1c[nH]c2ccccc12)NC(=O)C=Cc1ccccc1 [Compound 63] (X2-WSY[dL]LRP-NHEt) please.
Result block: no

Query block: Item: CCNC(=O)[C@@H]1CCCN1C(=O)[C@H](CCCNC(=N)N)NC(=O)[C@H](CC(C)C)NC(=O)[C@@H](Cc1c[nH]c2ccccc12)NC(=O)[C@H](Cc1ccc(O)cc1)NC(=O)[C@H](CO)NC(=O)[C@H](Cc1ccc2ccccc2c1)NC(=O)N1CCOCC1 [Compound 138] ({Morpholide-CO}-[2Nal]SY[dW]LRP-NHEt)
Result block: yes

Query block: CCNC(=O)[C@@H]1CCCN1C(=O)[C@H](CCCNC(=N)N)NC(=O)[C@H](CC(C)C)NC(=O)[C@@H](Cc1c[nH]c2ccccc12)NC(=O)[C@H](Cc1ccc(O)cc1)NC(=O)[C@H](CO)N(C)C(=O)[C@H](Cc1c[nH]c2ccccc12)NC(=O)[C@H](Cc1ccccc1)NC(=O)N1CCOCC1 [Compound 115] ({Morpholide-CO}-FW[NMeS]Y[dW]LRP-NHEt) ?
Result block: no

Query block: Please answer likewise for CCNC(=O)[C@@H]1CCCN1C(=O)[C@H](CCCNC(=N)N)NC(=O)[C@H](CC(C)C)NC(=O)[C@@H](CC(C)C)NC(=O)[C@H](Cc1ccc(O)cc1)NC(=O)[C@H](CO)NC(=O)[C@H](Cc1c[nH]c2ccccc12)NC(=O)CCc1ccccc1 [Compound 66] (Hydrocinnamoyl-WSY[dL]LRP-NHEt)
Result block: yes

Query block: Entry CCNC(=O)[C@@H]1CCCN1C(=O)[C@H](CCCN=C(N)N)NC(=O)[C@H](CC(C)C)NC(=O)[C@@H](Cc1c[nH]c2ccccc12)NC(=O)[C@H](Cc1ccc(O)cc1)NC(=O)[C@H](CO)NC(=O)[C@H](Cc1ccc(O)cc1)NC(=O)CCc1ccc(Cl)cc1 [Compound 87] ({Propanoyl(3-(4-Cl-Ph))}-YSY[dW]LRP-NHEt) please
Result block: yes

Query block: Next record, please: CCNC(=O)[C@@H]1CCCN1C(=O)[C@H](CCCNC(=N)N)NC(=O)[C@H](CC(C)C)NC(=O)[C@@H](Cc1cccs1)NC(=O)[C@H](Cc1ccc(O)cc1)NC(=O)[C@H](CO)NC(=O)CCc1c[nH]c2ccccc12 [Compound 80] ({Propanoyl(3-indol-3-yl)}-SY[d2Thi]LRP-NHEt)
Result block: no

Query block: Another molecule: CCNC(=O)[C@@H]1CCCN1C(=O)[C@H](CCCNC(=N)N)NC(=O)[C@H](CC(C)C)NC(=O)[C@@H](Cc1c[nH]c2ccccc12)NC(=O)[C@H](Cc1ccc(O)cc1)NC(=O)[C@H](CO)NC(=O)[C@H](Cc1c[nH]c2ccccc12)NC(=O)[C@H](Cc1ccccc1)NC(=O)N1CCOCC1 [Compound 59] ({Morpholide-CO}-FWSY[dW]LRP-NHEt)
Result block: yes
